The reported numbers originate from paper PMC6777777.

TARGET_OR_SYSTEM: nicotinic acetylcholine receptor (nAChR) from Torpedo californica (Tetronarce californica, UniProt P02710+P02712+P02714+P02718)
Construct: flash-frozen Torpedo electric organ was purchased from Aquatic Research Consultants (San Pedro, CA); tissue Aquatic Research Consultants (San Pedro, CA); Membranes were solubilized in cholate, reconstituted in asolectin liposomes and microinjected as protein into Xenopus oocytes
Sequence (P02710 25-461): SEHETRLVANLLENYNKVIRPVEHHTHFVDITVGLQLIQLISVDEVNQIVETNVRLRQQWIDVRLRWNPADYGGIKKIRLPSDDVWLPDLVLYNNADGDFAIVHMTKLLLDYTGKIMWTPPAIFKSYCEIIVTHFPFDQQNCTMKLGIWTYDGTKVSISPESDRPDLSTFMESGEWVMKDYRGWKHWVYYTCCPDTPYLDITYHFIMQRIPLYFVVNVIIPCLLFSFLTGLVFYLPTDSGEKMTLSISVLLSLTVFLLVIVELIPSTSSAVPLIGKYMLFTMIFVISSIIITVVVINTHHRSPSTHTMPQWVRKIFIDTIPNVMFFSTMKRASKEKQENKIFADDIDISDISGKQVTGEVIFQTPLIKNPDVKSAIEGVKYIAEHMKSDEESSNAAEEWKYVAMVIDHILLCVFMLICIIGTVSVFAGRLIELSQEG
Sequence (P02712 25-493): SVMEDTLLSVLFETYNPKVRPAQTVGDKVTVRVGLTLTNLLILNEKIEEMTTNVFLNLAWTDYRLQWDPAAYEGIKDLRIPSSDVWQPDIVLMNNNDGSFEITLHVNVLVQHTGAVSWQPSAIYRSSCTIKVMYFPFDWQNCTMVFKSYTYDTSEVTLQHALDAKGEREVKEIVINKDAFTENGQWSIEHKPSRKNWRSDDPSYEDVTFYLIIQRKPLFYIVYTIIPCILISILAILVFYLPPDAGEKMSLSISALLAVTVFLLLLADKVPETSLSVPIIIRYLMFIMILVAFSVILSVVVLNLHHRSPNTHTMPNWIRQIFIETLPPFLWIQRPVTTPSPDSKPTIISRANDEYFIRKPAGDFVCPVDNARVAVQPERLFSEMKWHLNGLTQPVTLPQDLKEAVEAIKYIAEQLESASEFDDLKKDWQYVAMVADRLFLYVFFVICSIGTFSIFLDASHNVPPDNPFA
Sequence (P02714 18-506): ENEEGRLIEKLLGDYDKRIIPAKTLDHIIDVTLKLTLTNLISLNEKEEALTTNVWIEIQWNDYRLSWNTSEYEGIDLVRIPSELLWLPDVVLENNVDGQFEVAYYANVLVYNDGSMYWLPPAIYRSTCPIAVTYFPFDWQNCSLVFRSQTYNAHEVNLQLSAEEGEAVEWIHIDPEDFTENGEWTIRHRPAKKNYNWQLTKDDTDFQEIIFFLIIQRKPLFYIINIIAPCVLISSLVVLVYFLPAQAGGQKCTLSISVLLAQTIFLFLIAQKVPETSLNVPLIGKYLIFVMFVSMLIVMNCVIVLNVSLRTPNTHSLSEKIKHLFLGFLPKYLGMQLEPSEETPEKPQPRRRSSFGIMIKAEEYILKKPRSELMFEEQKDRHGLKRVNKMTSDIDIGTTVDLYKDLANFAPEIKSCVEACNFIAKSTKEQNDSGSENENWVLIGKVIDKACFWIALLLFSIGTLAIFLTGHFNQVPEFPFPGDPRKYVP
Sequence (P02718 22-522): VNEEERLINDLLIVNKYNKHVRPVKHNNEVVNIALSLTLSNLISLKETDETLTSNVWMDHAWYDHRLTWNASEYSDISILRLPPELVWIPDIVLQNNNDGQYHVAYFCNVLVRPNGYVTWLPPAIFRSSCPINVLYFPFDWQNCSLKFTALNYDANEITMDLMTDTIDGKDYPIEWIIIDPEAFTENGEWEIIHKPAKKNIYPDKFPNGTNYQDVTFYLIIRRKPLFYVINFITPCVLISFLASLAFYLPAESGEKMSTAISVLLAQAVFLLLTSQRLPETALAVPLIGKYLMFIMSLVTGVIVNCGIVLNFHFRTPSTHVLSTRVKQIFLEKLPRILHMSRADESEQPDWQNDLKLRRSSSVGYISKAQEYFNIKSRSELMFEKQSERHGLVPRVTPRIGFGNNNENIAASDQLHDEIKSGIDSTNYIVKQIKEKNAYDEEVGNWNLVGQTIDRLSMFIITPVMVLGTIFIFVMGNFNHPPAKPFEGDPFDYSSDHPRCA
ASSAY_EXPLANATION: Two-electrode voltage clamp: inhibition of carbachol-stimulated nAChR current
pIC50: −log10 of the molar value.
MEASURE: pIC50

- COMPOUND: "CC(=O)[C@H]1CC[C@H]2[C@@H]3CC[C@H]4C[C@H](O)CC[C@]4(C)[C@H]3CC[C@]12C [Allopregnanolone, 3α-hydroxy-5α-pregnan-20-one]"
  MEASURE: "pIC50"
  OBS_VALUE: 4.70
